Target: VHL (Homo sapiens)
Sequence (P40337 whole entry): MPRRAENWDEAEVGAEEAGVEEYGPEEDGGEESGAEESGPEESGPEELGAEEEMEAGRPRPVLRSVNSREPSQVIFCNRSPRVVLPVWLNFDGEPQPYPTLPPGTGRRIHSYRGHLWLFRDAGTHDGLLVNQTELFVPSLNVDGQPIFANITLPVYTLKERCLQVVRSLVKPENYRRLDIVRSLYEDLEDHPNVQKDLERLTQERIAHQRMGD
Assay: VHL nanoBRET (+ Digitonin)
pEC50: −log10 of the molar value.
REPORTED METRIC: pEC50

Here's what some known entries look like.
{"MOLECULE": "C[C@H](NC(=O)[C@@H]1C[C@@H](O)CN1C(=O)[C@@H](n1cc(C2CC2)nn1)C(C)(C)C)c1ccc(-c2ccccc2F)cc1", "TESTED TARGET": "VHL (Homo sapiens)", "pEC50": 8.00}
{"MOLECULE": "CC[C@H](C)[C@@H](C(=O)N1C[C@H](O)C[C@H]1C(=O)N[C@H](Cc1ccc(-c2ccccc2)cc1)C(N)=O)n1cc(C2CC2)nn1", "TESTED TARGET": "VHL (Homo sapiens)", "pEC50": 6.77}
{"MOLECULE": "C[C@H](NC(=O)[C@@H]1C[C@@H](O)CN1C(=O)[C@@H](n1cc(C2CC2)nn1)C(C)(C)C)c1ccc(-c2ccccc2Cl)cc1", "TESTED TARGET": "VHL (Homo sapiens)", "pEC50": 8.00}
{"MOLECULE": "Cc1ncsc1-c1ccc(C(C)NC(=O)[C@@H]2C[C@@H](O)CN2C(=O)[C@@H](n2cc(C3CC3)nn2)C(C)(C)C)c(Cl)c1 (some centres unmarked)", "TESTED TARGET": "VHL (Homo sapiens)", "pEC50": 8.00}
{"MOLECULE": "CC(C)(C)[C@@H](C(=O)N1C[C@H](O)C[C@H]1C(=O)N[C@H](Cc1ccc(-c2ccccc2)cc1)C(N)=O)n1cc(C2CC2)nn1", "TESTED TARGET": "VHL (Homo sapiens)", "pEC50": 6.85}

[P] NC(=O)[C@@H](Cc1ccc(-c2ccccc2)cc1)NC(=O)[C@@H]1C[C@@H](O)CN1C(=O)[C@@H](n1cc(C2CC2)nn1)C12CC3CC(CC(C3)C1)C2
[Q] CC(=O)NCC1(c2cn([C@@H](C(=O)N3C[C@H](O)C[C@H]3C(=O)N[C@H](Cc3ccc(-c4ccccc4)cc3)C(N)=O)C(C)(C)C)nn2)CC1
[R] Cc1ncsc1-c1ccc(CNC(=O)[C@@H]2C[C@@H](O)CN2C(=O)[C@@H](n2cc(Cc3ccccc3)nn2)C(C)(C)C)cc1
[S] CC(C)[C@@H](C(=O)N1C[C@H](O)C[C@H]1C(=O)N[C@H](Cc1ccc(-c2ccccc2)cc1)C(N)=O)n1nnc2ccccc21 (single isomer, unassigned) [Isomer A from Example S36]
[T] Cc1ncsc1-c1ccc([C@H](C)NC(=O)[C@@H]2C[C@@H](O)CN2C(=O)[C@@H](n2cc(C3CC3)nn2)C23CC4CC(CC(C4)C2)C3)cc1
Thanks in advance: please rank these 5 entries by pEC50, highest to lowest. API: response body holds the labels in the requested order.
T, R, P, S, Q
